What Activity was measured for each of the following?
target: Translocator protein (Mus musculus) (UniProt P50637); assay: Inhibition of TSPO in mouse HT22 cells assessed as protection against amyloid beta (1 to 42)-induced mitochondrial membrane potential loss by measuring recovery of ATP production at 5 uM preincubated for 10 mins followed by amyloid beta (1 to 42) addition measured after 7 hrs by luciferase reporter gene assay relative to control; type: cell-based; design: scale not given: the % may be the effect or the level left; conditions: HT-22
Sequence (P50637 whole entry, looked up): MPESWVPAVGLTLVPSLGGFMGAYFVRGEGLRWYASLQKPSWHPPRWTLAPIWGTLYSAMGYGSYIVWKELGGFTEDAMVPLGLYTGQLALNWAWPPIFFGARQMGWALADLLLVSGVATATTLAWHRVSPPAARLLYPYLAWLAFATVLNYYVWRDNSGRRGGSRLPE
State just the number; it will be interpreted in %.

Query block: // fetch Translocator protein (Mus musculus) (UniProt P50637) Activity for Cc1ccc(C(C)C)cc1NC(=O)Cn1c(-c2cc(Cl)ccc2Cl)nc2ccc(Cl)cc21
Result block: 69

Query block: Next: CN1CCC(NC(=O)c2ccc(Cn3c(Cc4c(Cl)cccc4Cl)nc4ccccc43)cc2)CC1
Result block: 8

Query block: Next: CCN1CCCC1CNC(=O)c1ccc(Cn2c(Cc3c(Cl)cccc3Cl)nc3ccccc32)cc1 (centres undefined)
Result block: 51

Query block: Next: COc1ccc(OC)c(Cc2nc3ccccc3n2CC(=O)Nc2cc(C(C)C)ccc2C)c1
Result block: 0

Query block: Next: O=C(NCCCN1CCCC1)c1ccc(Cn2c(Cc3c(Cl)cccc3Cl)nc3ccccc32)cc1
Result block: 31

Query block: Next: O=C(NCCCN1CCCCC1)c1ccc(Cn2c(Cc3c(Cl)cccc3Cl)nc3ccccc32)cc1
Result block: 64

Query block: Next: CN(C)CCCNC(=O)c1ccc(Cn2c(Cc3c(Cl)cccc3Cl)nc3ccccc32)cc1
Result block: 85

Query block: Next: CCCN(CCC)C(=O)Cn1c(SCc2ccc(F)cc2)nc2ccccc21
Result block: 20

Query block: Next: Cc1ccc(C(C)C)cc1NC(=O)Cn1c(-c2cc(Cl)ccc2Cl)nc2ccccc21
Result block: 0

---

assay: Ratio of drug level in brain to plasma in Sprague-Dawley rat at 10 mg/kg, po at 2 hrs post dose by LC-MS/MS analysis; format: ADME, organism-based; conditions: brain and plasma, read-out: BPR
quantity measured: Kp at 2 h

Query block: Fill in: Kp at 2 h of Cc1ccc(C(C)C)cc1NC(=O)Cn1c(Cc2c(Cl)cccc2Cl)nc2ccccc21 is ___
Result block: 1.02

---

molecular target: Translocator protein (Mus musculus); experiment: Inhibition of TSPO in mouse HT22 cells assessed as inhibition of amyloid beta (1 to 42)-induced toxicity at 5 uM after 24 hrs by MTT assay relative to control; assay type: cell-based; conditions: HT-22
quantity measured: inhibition (%)
State just the number; it will be interpreted in %.

Query block: Fill in: inhibition of O=C(NCCCN1CCCC1)c1ccc(Cn2c(Cc3c(Cl)cccc3Cl)nc3ccccc32)cc1 is ___
Result block: 12

Query block: Next: Cc1ccc(C(C)C)cc1NC(=O)Cn1c(Cc2c(Cl)cccc2Cl)nc2ccccc21
Result block: 30

Query block: Next: O=C(NCCCN1CCCCC1)c1ccc(Cn2c(Cc3c(Cl)cccc3Cl)nc3ccccc32)cc1
Result block: 3

Query block: Next: COc1ccc(OC)c(Cc2nc3ccccc3n2CC(=O)Nc2cc(C(C)(C)C)cc(C(C)(C)C)c2)c1
Result block: 36

Query block: Next: Cc1cccc(C(C)(C)C)c1NC(=O)Cn1c(-c2ccccc2)nc2ccccc21
Result block: 16

Query block: Next: CCN1CCCC1CNC(=O)c1ccc(Cn2c(Cc3c(Cl)cccc3Cl)nc3ccccc32)cc1 (stereo not given)
Result block: 6

Query block: Next: CN(C)CCCNC(=O)c1ccc(Cn2c(Cc3c(Cl)cccc3Cl)nc3ccccc32)cc1
Result block: 7

Query block: Next: COc1ccc(OC)c(Cc2nc3ccccc3n2CC(=O)Nc2cc(Cl)cc(Cl)c2)c1
Result block: 12

Query block: Next: NC(=O)CN1CCCC1=O
Result block: 29

Query block: Next: Cc1ccc(C(C)C)cc1NC(=O)Cn1c(-c2cc(Cl)ccc2Cl)nc2ccc(Cl)cc21
Result block: 0
